System: IGROV-1
Assay: NCI tumour cell line growth inhibition, 48 h
Active and inactive are the calls of the source. Rule as the data show it: active = GI50 up to about 1.1 µM and inactive = higher.
test readout: GI50

molecule	GI50
CC1(C)CCC(Sc2ccccc2)O1 (stereo unspecified)	> 100 µM (inactive)
Cn1ccnc1SC(F)(F)c1nc2ccccc2o1	> 100 µM (inactive)
CC[C@H](C)C1=C(O)[N@+]2([O-])Oc3ccc(-c4c(O)c(O)c(-c5ccc(OC(C)=O)cc5)c(OC(C)=O)c4OC(C)=O)cc3O[C@]2([C@@H](C)CC)C(=O)N1O	8.85 µM (inactive)
Cc1cccc(C)c1NC(=O)C(=O)CC(=O)c1sc(Nc2c(C)cccc2C)nc1C	> 100 µM (inactive)
CC(=O)C1=C(O)/C(=C\c2ccco2)OC1=O	> 10 µM (inactive)

Read the entry CC12CCC(C/C1=N\NC(N)=O)C2(C)C (stereo unspecified) and write its reported GI50.
> 100 µM (inactive)

Read the entry `Nc1ccccc1N` and write its reported GI50.
> 100 µM (inactive)

Read the entry `Cn1c(S)nc(C(N)=O)c1N` and write its reported GI50.
> 100 µM (inactive)

Read the entry ICC1CCCO1 (stereo unspecified) and write its reported GI50.
> 100 µM (inactive)

Read the entry Cc1c(N)nc([C@H](CC(N)=O)NC[C@H](N)C(N)=O)nc1C(=O)N[C@H](C(=O)N[C@H](C)[C@@H](O)[C@H](C)C(=O)N[C@H](C(=O)NCCc1nc(-c2nc(C(=O)NCCC[S+](C)C)cs2)cs1)[C@@H](C)O)C(OC1OC(CO)C(O)C(O)C1OC1OC(CO)C(O)C(OC(N)=O)C1O)c1c[nH]cn1 (stereo partly specified) and write its reported GI50.
2.29 µM (inactive)

Read the entry `COC(=O)[C@H]1COC(=O)N1` and write its reported GI50.
> 100 µM (inactive)
